Catalogue of Ratio values
molecular target: UniProt:A6QP37; assay: Inhibition of Bos taurus (bovine) heart cAMP-dependent phosphodiesterase assessed as inhibition of cyclic AMP to 5' AMP after 20 min by spectrophotometry relative to theophylline
A bare number is all that is needed in reply.

The cases that follow already have their Ratio on record.
1. COc1cccc2sc(-n3c(-c4ccccc4)nc4c(Br)cc(Br)cc4c3=O)nc12	1.18
2. CCOc1cccc2sc(-n3c(-c4ccccc4)nc4ccccc4c3=O)nc12	1.38
3. COc1ccc2sc(-n3c(-c4ccccc4)nc4c(Br)cc(Br)cc4c3=O)nc2c1	1.18
4. CCOc1ccc2nc(-n3c(-c4ccccc4)nc4c(Br)cc(Br)cc4c3=O)sc2c1	1.19

Req: Value lookup for Ratio; key = O=c1c2ccccc2nc(-c2ccccc2)n1-c1nc2ccc([N+](=O)[O-])cc2s1
Resp: 1.47

Req: Value lookup for Ratio; key = Cc1cccc2sc(-n3c(-c4ccccc4)nc4c(Br)cc(Br)cc4c3=O)nc12
Resp: 1.14

Req: Value lookup for Ratio; key = Cc1cc(C)c2nc(-n3c(-c4ccccc4)nc4c(Br)cc(Br)cc4c3=O)sc2c1
Resp: 1.17

----------
target: PDE7B protein (Bos taurus); experiment: Inhibition of Bos taurus (bovine) heart cAMP-dependent phosphodiesterase assessed as inhibition of cyclic AMP to 5' AMP after 20 min by spectrophotometry relative to theophylline
Measurement kind: Ratio
A bare number is all that is needed in reply.

The cases that follow already have their Ratio on record.
1. O=c1c2ccccc2nc(-c2ccccc2)n1-c1nc2ccccc2s1	1.22
2. O=c1c2cc(Br)cc(Br)c2nc(-c2ccccc2)n1-c1nc2ccc([N+](=O)[O-])cc2s1	0.869
3. CCOc1ccc2sc(-n3c(-c4ccccc4)nc4c(Br)cc(Br)cc4c3=O)nc2c1	1.22
4. O=c1c2cc(Br)cc(Br)c2nc(-c2ccccc2)n1-c1nc2cc(Cl)ccc2s1	0.844

# evaluate next
Req: Query the reported Ratio for PDE7B protein (Bos taurus); item: COc1ccc2nc(-n3c(-c4ccccc4)nc4ccccc4c3=O)sc2c1
Resp: 1.35

----------
biological target: PDE7B protein (Bos taurus); assay: Inhibition of Bos taurus (bovine) heart cAMP-dependent phosphodiesterase assessed as inhibition of cyclic AMP to 5' AMP after 20 min by spectrophotometry relative to theophylline
Response field label: string, one of rule met (Ratio strictly below 1) or rule not met.

1. Cc1ccc2sc(-n3c(-c4ccccc4)nc4c(Br)cc(Br)cc4c3=O)nc2c1	rule not met
2. CCOc1ccc2sc(-n3c(-c4ccccc4)nc4ccccc4c3=O)nc2c1	rule not met

Req: Hello, is Ratio of the following compound strictly smaller than 1? O=c1c2ccccc2nc(-c2ccccc2)n1-c1nc2cc(Cl)ccc2s1
Resp: rule not met

Req: Hello, is Ratio of the following compound strictly smaller than 1? COc1cccc2sc(-n3c(-c4ccccc4)nc4ccccc4c3=O)nc12
Resp: rule not met

Req: Hello, is Ratio of the following compound strictly smaller than 1? O=c1c2cc(Br)cc(Br)c2nc(-c2ccccc2)n1-c1nc2ccc(Br)cc2s1
Resp: rule met

----------
Biological target: PDE7B protein (Bos taurus)
Sequence (whole entry): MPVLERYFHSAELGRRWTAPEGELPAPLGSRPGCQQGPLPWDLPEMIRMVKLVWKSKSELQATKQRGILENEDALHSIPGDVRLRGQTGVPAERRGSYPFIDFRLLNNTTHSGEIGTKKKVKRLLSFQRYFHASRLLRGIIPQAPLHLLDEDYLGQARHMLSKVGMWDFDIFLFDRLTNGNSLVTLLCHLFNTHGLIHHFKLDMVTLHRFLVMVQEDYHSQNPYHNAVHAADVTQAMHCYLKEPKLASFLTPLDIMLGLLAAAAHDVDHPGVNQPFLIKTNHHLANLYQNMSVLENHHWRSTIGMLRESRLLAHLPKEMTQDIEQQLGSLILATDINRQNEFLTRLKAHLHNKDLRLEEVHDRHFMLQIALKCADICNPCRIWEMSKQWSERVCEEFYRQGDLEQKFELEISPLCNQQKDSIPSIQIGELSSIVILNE
Assay: Inhibition of Bos taurus (bovine) heart cAMP-dependent phosphodiesterase assessed as inhibition of cyclic AMP to 5' AMP after 20 min by spectrophotometry relative to theophylline
Measurement kind: Ratio
A bare number is all that is needed in reply.

1) Cc1cc(C)c2nc(-n3c(-c4ccccc4)nc4ccccc4c3=O)sc2c1	1.35
2) CCOc1cccc2sc(-n3c(-c4ccccc4)nc4c(Br)cc(Br)cc4c3=O)nc12	1.21
3) COc1ccc2sc(-n3c(-c4ccccc4)nc4ccccc4c3=O)nc2c1	1.34
4) COc1ccc2nc(-n3c(-c4ccccc4)nc4c(Br)cc(Br)cc4c3=O)sc2c1	1.2
5) O=c1c2cc(Br)cc(Br)c2nc(-c2ccccc2)n1-c1nc2ccccc2s1	1.08
6) CCOc1ccc2nc(-n3c(-c4ccccc4)nc4ccccc4c3=O)sc2c1	1.38

Req: Value lookup for Ratio; key = O=c1c2ccccc2nc(-c2ccccc2)n1-c1nc2ccc(Br)cc2s1
Resp: 1.28

Req: Value lookup for Ratio; key = Cn1c(=O)c2[nH]cnc2n(C)c1=O
Resp: 1

Req: Value lookup for Ratio; key = Cc1cccc2sc(-n3c(-c4ccccc4)nc4ccccc4c3=O)nc12
Resp: 1.27

Req: Value lookup for Ratio; key = Cc1ccc2sc(-n3c(-c4ccccc4)nc4ccccc4c3=O)nc2c1
Resp: 1.29

These data points were gathered from ChEMBL document CHEMBL3046434.
